Attribute: GI50
System: SK-MEL-28 melanoma
Assay: NCI tumour cell line growth inhibition, 48 h

compound="Cn1cccc1C1CC(=O)N(CCC[Se]C#N)C1=O (stereo unspecified)" assay_target="SK-MEL-28 melanoma" observed_property=GI50 data_value="2240 nM"
compound="C=C1CCC2C3(C)COC(c4cccc(Cl)c4)OC3CCC2(C)C1/C=C/C1=CCOC1=O (stereo unspecified)" assay_target="SK-MEL-28 melanoma" observed_property=GI50 data_value="> 100000 nM"
compound=N=C(N)c1ccc(-c2ccc(-c3ccccc3)o2)cc1 assay_target="SK-MEL-28 melanoma" observed_property=GI50 data_value="1670 nM"
compound=CC1(C)CCC(CN2CCN(c3ccc(C(=O)NS(=O)(=O)c4ccc(NCC5CCOCC5)c([N+](=O)[O-])c4)c(Oc4cnc5[nH]ccc5c4)c3)CC2)=C(c2ccc(Cl)cc2)C1 assay_target="SK-MEL-28 melanoma" observed_property=GI50 data_value="1410 nM"
compound=C/C=C(\C)C(=O)O[C@@H]1C=CC(=O)O[C@H]1COC(=O)[C@H](C)O assay_target="SK-MEL-28 melanoma" observed_property=GI50 data_value="12400 nM"
compound=O=C(/C=C/c1cccnc1)/C=C/c1cccnc1 assay_target="SK-MEL-28 melanoma" observed_property=GI50 data_value="1950 nM"
compound=NCCCNCCCNc1nc2ccccc2c2[nH]c3ccccc3c12 assay_target="SK-MEL-28 melanoma" observed_property=GI50 data_value="464 nM"
compound=CCCCCCCCCCCCCCCc1ccc(C(=O)C[n+]2ccccc2)cc1 assay_target="SK-MEL-28 melanoma" observed_property=GI50 data_value="1210 nM"
compound="CC1OC(OC2C(OC3CCC4(C)C(CCC5(C)C4CC=C4C6CC(C)(C)CCC6(CO)C(O)CC45C)C3(C)C)OC(C(=O)O)C(OC3OC(COC4OC(CO)C(O)C(O)C4O)C(O)C(O)C3O)C2O)C(O)C(O)C1O (stereo unspecified)" assay_target="SK-MEL-28 melanoma" observed_property=GI50 data_value="1960 nM"
compound=Nc1nccc(C#Cc2cncnc2Nc2ccc(OCc3cccc(F)c3)c(Cl)c2)n1 assay_target="SK-MEL-28 melanoma" observed_property=GI50 data_value="4570 nM"

Any idea what GI50 was measured for C#CCSc1nnnn1-c1ccc(Br)c(C)c1 ?
50100 nM

---

Tested on: MDA-N
Assay: NCI tumour cell line growth inhibition, 48 h
Observed Property: TGI (µM)
Kindly answer with a numeric value in µM, unit omitted.

Worked examples, 2 molecules total:
molecule="CCC1c2[nH]c3ccccc3c2C[C@H]2C(=O)NC(Cc3ccccc3)C(=O)N12 (stereo partly drawn)" value_unit=µM data_value=67.5
molecule=NC(=NCc1ccccc1)N/N=C\c1ccnc2ccccc12 value_unit=µM data_value=26.6

Look up TGI: CCCCC[C@H]1CC=CC(=O)O1
23

# get_value(readout='TGI', item= CNC1=C(C)C(=O)C2=C(C1=O)C(COC(N)=O)C1(OC)C3NC3CN21 (stereo not drawn) )
5.65

---

System: NCI-H460 lung
Experiment: NCI tumour cell line growth inhibition, 48 h
Observed Property: TGI

Some solved entries appear below for comparison.
compound=COc1ccccc1NS(=O)(=O)c1cc(C(C)(C)C)ccc1OCCOc1ccc(C(C)(C)C)cc1S(=O)(=O)Nc1ccccc1OC data_value="> 100 µM"
compound=O=C(N/N=C1\CCc2ccccc21)N/N=C1\CCc2ccccc21 data_value="> 100 µM"
compound="Nc1nc(Cl)cc(NCC2(CO)CC(O)C2)n1 (stereo not drawn)" data_value="> 100 µM"
compound=Nc1nc(SCC(=O)c2ccccc2)nc2nc3c(c(-c4ccccc4)c12)CCCC3 data_value="> 100 µM"
compound=Nc1ccc(C(=O)O)c2[nH]c3ccccc3c(=O)c12 data_value="> 100 µM"

// returns reported TGI for input CSc1ccc(C=C2N=C(c3ccccc3)N(c3cc(C(=O)c4ccccc4)ccc3N3C(=O)/C(=C/c4ccc(SC)cc4)N=C3c3ccccc3)C2=O)cc1
> 100 µM

Field request: TGI | item: COc1ccc(C(=O)Nc2ccccc2)cc1[N+](=O)[O-]
> 100 µM

Sample N/C(=N/O)c1cn(C2OC(CO)C(O)C2O)c2ncnc(NO)c12 (stereo not drawn) — what was its TGI?
7.59 µM

I have this compound here, CC[C@]12C=CCN3CC[C@]4(C(=C(C(=O)OC)C1)Nc1ccccc14)[C@@H]32 , and I need its recorded TGI.
16.3 µM

Quick one: TGI for C[C@@H](Oc1cc(-n2cnc3ccc(OCC4CCN(C)CC4)cc32)sc1C(N)=O)c1ccccc1C(F)(F)F ?
3.1 µM

Look up TGI for this compound: Cc1ccc(NC(=O)c2cc(S(=O)(=O)N3CCNNC3=O)c(S)cc2Cl)cc1
> 100 µM

State the recorded TGI for this entry: COC(=O)C1(c2ccc(OC)cc2)NC(c2ccccc2)C2C(=O)N(c3ccc(OC)cc3)C(=O)C21 (stereo not drawn)
> 100 µM

Which TGI reading was recorded for the compound COc1ccc(Nc2nc3c(N)cc(C(F)(F)F)cc3nc2-c2ccccc2)cc1 ?
> 100 µM

Give the measured TGI of CSc1nc(NC2OC(CO)C(O)C(O)C2O)c(N)c(=O)n1C (stereo not drawn) .
> 100 µM

Quick check: TGI of O=C1C2=Cc3ccccc3CCN2c2ccc([N+](=O)[O-])cc21 ?
> 100 µM

Name the reported TGI value associated with the compound CCOC(=O)c1c(C)n(-c2ccc(C)cc2)c2c1cc(O)c1[nH]c3c(c12)CCCC3
84.5 µM

Could you share which TGI value was measured for O=C1NC(c2ccccc2)C1N(Cc1ccccc1)Cc1ccccc1 (stereo not drawn) ?
> 100 µM

These measurements were taken from PubChem BioAssay (NCI).
